System: P. aeruginosa
assay-name: MIC, broth microdilution, CDC/FDA Antibiotic Resistance Isolate Bank (Example 7, Tables 10, 15)
Assay type: cell-based
condition-notes: Pseudomonas aeruginosa, P. aeruginosa KUB No. 5605, AR Bank # 108; read-out: MIC
Property: MIC; scope: individual compounds
reported-property: MIC (µg/mL)

smiles-string	reported-property	relational-operator	experimental-result
NCC[C@H](O)C(=O)N[C@@H]1C[C@H](N)[C@@H](O[C@H]2O[C@H](CN)[C@@H](O)[C@H](O)[C@H]2O)[C@H](O)[C@H]1O[C@H]1O[C@H](CO)[C@@H](O)[C@H](N)[C@H]1O	MIC	>	64
CC(C)(O/N=C(\C(=O)N[C@@H]1C(=O)N2C(C(=O)[O-])=C(C[N+]3(CCNC(=O)c4ccc(O)c(O)c4Cl)CCCC3)CS[C@H]12)c1csc(N)n1)C(=O)O	MIC	=	0.5
C[C@H]1COc2c(N3CCN(C)CC3)c(F)cc3c(=O)c(C(=O)O)cn1c23	MIC	=	64
